Value source: patent US8343475B2

Test system: ESBL Klebsiella pneumonia clinical strain 63575
Assay type: cell-based
Residues, ends and D or L forms follow the SMILES beside them.
endpoint: MIC

Ask | Provide only the value of recorded MIC for CC[C@H](C)[C@H](NC(=O)[C@H](CC(N)=O)NC(=O)[C@H](CCCCN)NC(=O)[C@H](Cc1ccccc1)NC(=O)[C@H](CCCNC(=N)N)NC(=O)[C@H](Cc1c[nH]c2ccccc12)NC(=O)[C@H](C)N)C(=O)N[C@@H](CCCNC(=N)N)C(=O)N[C@@H](CCCCN)C(N)=O [HHC126, AWRFKNIRK] (H-AWRFKNIRK-NH2; N-terminus assumed)
Reply | >223 µM

Ask | Provide only the value of recorded MIC for CC(C)[C@H](NC(=O)[C@H](CCCNC(=N)N)NC(=O)[C@H](CCCCN)NC(=O)[C@@H](NC(=O)[C@H](Cc1ccccc1)NC(=O)[C@H](CCCCN)NC(=O)[C@H](Cc1c[nH]c2ccccc12)NC(=O)[C@@H](NC(=O)[C@H](C)N)C(C)C)C(C)C)C(N)=O [HHC123, AVWKFVKRV] (H-AVWKFVKRV-NH2; N-terminus assumed)
Reply | >240 µM

Ask | Provide only the value of recorded MIC for CC[C@H](C)[C@H](NC(=O)[C@H](CCCNC(=N)N)NC(=O)[C@@H](N)CCCCN)C(=O)N[C@@H](CCSC)C(=O)N[C@@H](CCCCN)C(=O)N[C@@H](CC(C)C)C(=O)N[C@@H](CCCCN)C(=O)N[C@@H](CCSC)C(=O)N[C@@H](CCCNC(=N)N)C(N)=O [HHC133, KRIMKLKMR] (H-KRIMKLKMR-NH2; N-terminus assumed)
Reply | >226 µM
